biological target: T1, COVID S1 RBD Fc fusion (Antigen 1) (SARS-CoV-2, UniProt P0DTC2 319-541); assay: phage ELISA
T1 construct: domain: S1 RBD
property.label: specificity ELISA, percent binding relative to Acro S1 (%)

binder | unit.descriptor | numeric.readout
variant 3-10 (antibody, V domains shown) VH: EVQLLESGGGLVQPGGSLRLSCAASGFTFRSHAMSWVRQAPGKGLEWVSSISGGGASTYYADSVKGRFTISRDNSKNTLYLQMNSLRAEDTAVYYCARVKYLTTSSGWPRPYFDNWGQGTLVTVSS VL: DIQMTQSPSSLSASVGDRVTITCRASQSIRKYLNWYQQKPGKAPKLLIYASSTLQRGVPSRFSGSGSGTDFTLTISSLQPEDFATYYCQQSLSTPFTFGGGTKVEIK | % | 97.2
variant 2-8 (antibody, V domains shown) VH: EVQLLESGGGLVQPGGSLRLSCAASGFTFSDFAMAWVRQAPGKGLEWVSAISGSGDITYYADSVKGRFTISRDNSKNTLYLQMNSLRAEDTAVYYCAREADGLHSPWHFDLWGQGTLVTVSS VL: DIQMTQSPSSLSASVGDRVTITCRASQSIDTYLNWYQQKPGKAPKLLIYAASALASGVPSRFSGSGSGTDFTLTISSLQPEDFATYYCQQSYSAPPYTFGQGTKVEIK | % | 102
